# target-entity: human S1P1 receptor (Homo sapiens)
# Sequence (P21453 whole entry): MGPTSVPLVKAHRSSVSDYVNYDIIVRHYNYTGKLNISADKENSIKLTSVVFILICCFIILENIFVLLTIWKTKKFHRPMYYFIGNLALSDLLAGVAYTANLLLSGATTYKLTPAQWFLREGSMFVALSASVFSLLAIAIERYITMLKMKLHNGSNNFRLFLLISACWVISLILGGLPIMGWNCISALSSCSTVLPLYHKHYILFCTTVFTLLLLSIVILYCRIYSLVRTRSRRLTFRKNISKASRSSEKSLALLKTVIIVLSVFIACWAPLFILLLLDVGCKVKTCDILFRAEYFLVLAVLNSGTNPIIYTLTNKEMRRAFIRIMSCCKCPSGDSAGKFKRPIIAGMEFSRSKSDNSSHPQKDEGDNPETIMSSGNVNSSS
# assay-notes: GTPγS assay to determine EC50 values
# Assay type: biochemical
# recorded-conditions: 35S-GTPγS binding, membrane preparations of CHO cells expressing recombinant human S1P1 receptor; agonistic activity
pEC50: −log10 of the molar value.
The entries below are paired with their reported pEC50.

# smiles-structure, pEC50
rows = [
    ("CCNc1nc(C)cc(-c2nc(-c3cc(C)nc(Cl)c3)no2)n1", 7.57),
    ("CCCNc1nc(C)cc(-c2nc(-c3cc(C)nc(OC)c3)no2)n1", 7.52),
    ("CCCOc1nc(C)cc(-c2noc(-c3cc(C)nc(C)c3)n2)n1", 6.40),
    ("Cc1cc(-c2nnc(-c3cc(C)nc(NC(C)C)n3)o2)cc(C)n1", 6.89),
    ("CCCNc1nc(C)cc(-c2nnc(-c3cc(C)nc(C)c3)s2)n1", 6.48),
    ("CCCN(CC)c1nc(C)cc(-c2noc(-c3cc(C)nc(C)c3)n2)n1", 7.96),
    ("CCNc1nc(C)cc(-c2nc(-c3cc(C)nc(CC)c3)no2)n1", 7.68),
    ("COc1nc(C)cc(-c2noc(-c3cc(C)cc(CC(C)C)n3)n2)n1", 6.70),
    ("Cc1cc(-c2noc(-c3cc(CC(C)C)nc(NC(C)C)n3)n2)cc(C)n1", 7.59),
]
